Where these numbers come from: patent US20080021030A1

Think of 100 °C as a floor: if melting point stands on it or above, it is Fulfilled; beneath it, Not fulfilled.

Is melting point for Cc1cc(CNC(=O)c2cc(-c3ccc(-c4ccco4)cc3)n(C)n2)ccc1OC(C)(C)C(=O)O [Example 35] at or above 100 °C? Not fulfilled

Exam item: decide whether the reported melting point for Cc1cc(CNC(=O)c2cc(-c3cccc(-c4ccccc4)c3)nn2C)ccc1OC(C)(C)C(=O)O [Example 28] is at least 100 °C. Not fulfilled

Identify whether the reported melting point of the following compound is 100 °C or greater: CCCCc1ccc(-c2cc(C(=O)NCc3cc(C)c(OC(C)(C)C(=O)O)c(C)c3)nn2C)cc1 [Example 37] Not fulfilled

Quick check: does Cc1cc(CNC(=O)c2cc(-c3ccc(C(C)(C)C)cc3)nn2C)cc(C)c1OC(C)(C)C(=O)O [Example 26] have melting point greater than or equal to 100 °C? Fulfilled

Does Cc1cc(CNC(=O)c2cc(-c3ccc(-c4cccs4)cc3)n(C)n2)ccc1OC(C)(C)C(=O)O [Example 32] have a reported melting point of at least 100 °C? Not fulfilled

Check the entry Cc1cc(CNC(=O)c2cc(-c3ccc(C(C)(C)C)cc3)nn2CC(=O)c2ccccc2)ccc1OC(C)(C)C(=O)O [Example 49] : does melting point equal or exceed 100 °C? Fulfilled

Quick check, melting point >= 100 °C? CCCCc1ccc(-c2cc(C(=O)NCc3cc(C)c(OC(C)(C)C(=O)O)c(Cl)c3)nn2C)cc1 [Example 38] Not fulfilled

Hi, just wondering whether Cc1cc(CNC(=O)c2cc(-c3ccc(OCc4ccccc4)cc3)nn2C)ccc1OC(C)(C)C(=O)O [Example 57] shows melting point of 100 °C or higher. Not fulfilled

Entry COCCn1nc(-c2ccc(C(C)(C)C)cc2)cc1C(=O)NCc1ccc(OC(C)(C)C(=O)O)c(C)c1 [Example 48] : is its melting point no less than 100 °C? Fulfilled

Please tell me: is the compound COCCn1nc(C(=O)NCc2ccc(OC(C)(C)C(=O)O)c(C)c2)cc1-c1ccc(C(C)(C)C)cc1 [Example 52] at or over 100 °C in terms of melting point? Not fulfilled

Exam item: decide whether the reported melting point for C=CCOc1ccc(-c2cc(C(=O)NCc3ccc(OC(C)(C)C(=O)O)c(C)c3)n(C)n2)cc1 [Example 56] is at least 100 °C. Not fulfilled
